Attribute: Euclidean distance
- System: A549
- procedure-summary: Euclidean distance of Cell Painting phenotypic profile (signed KS, 77 features) to DMSO centroid (dimensionless distance); 5 or 10 uM (library dependent); higher = stronger phenotypic change vs DMSO (phenoactivity)
- test-conditions: 48 h
Counter-ions that a name gives are not always drawn.
quantity-kind: Euclidean distance

>  <compound>
CN(C)CCC=C1c2ccccc2CCc2ccccc21 [Amitriptyline HCl]

>  <target-of-assay>
A549

>  <quantity-kind>
Euclidean distance

>  <val>
1.54

$$$$
>  <compound>
NC(=O)c1cnccn1 [Pyrazinamide]

>  <target-of-assay>
A549

>  <quantity-kind>
Euclidean distance

>  <val>
1.35

$$$$
>  <compound>
CC[C@H](c1ccc(O)cc1)[C@@H](CC)c1ccc(O)cc1

>  <target-of-assay>
A549

>  <quantity-kind>
Euclidean distance

>  <val>
1.07

$$$$
>  <compound>
OC[C@H]1O[C@@H](c2ccc(F)c(Cc3cc4ccccc4s3)c2)[C@H](O)[C@@H](O)[C@@H]1O

>  <target-of-assay>
A549

>  <quantity-kind>
Euclidean distance

>  <val>
0.591

$$$$
>  <compound>
C[C@H](NC(=O)CCc1nc2ccccc2c(=O)[nH]1)c1ccccc1

>  <target-of-assay>
A549

>  <quantity-kind>
Euclidean distance

>  <val>
1.74

$$$$
>  <compound>
N[C@H]1C(O)O[C@H](CO)[C@@H](O)[C@@H]1O (stereo partly drawn)

>  <target-of-assay>
A549

>  <quantity-kind>
Euclidean distance

>  <val>
0.407

$$$$
>  <compound>
CCN(CC)CCCC(C)Nc1ccnc2cc(Cl)ccc12 (stereo not drawn) [Chloroquine Phosphate]

>  <target-of-assay>
A549

>  <quantity-kind>
Euclidean distance

>  <val>
3.04

$$$$
>  <compound>
CCCNC(C)C(=O)Nc1c(C)csc1C(=O)OC (stereo not drawn) [Articaine HCl]

>  <target-of-assay>
A549

>  <quantity-kind>
Euclidean distance

>  <val>
0.941

$$$$
>  <compound>
CC(C)=CCC/C(C)=C/CC/C(C)=C/CC/C(C)=C/CC/C(C)=C/CC/C(C)=C/CC1=C(C)C(=O)c2ccccc2C1=O

>  <target-of-assay>
A549

>  <quantity-kind>
Euclidean distance

>  <val>
1.16

$$$$
>  <compound>
Oc1ccc(C2CNCCc3c2cc(O)c(O)c3Cl)cc1 (stereo not drawn) [Fenoldopam mesylate]

>  <target-of-assay>
A549

>  <quantity-kind>
Euclidean distance

>  <val>
1.07

$$$$
>  <compound>
CCn1cc(C(=O)O)c(=O)c2ccc(C)nc21

>  <target-of-assay>
A549

>  <quantity-kind>
Euclidean distance

>  <val>
0.755

$$$$
>  <compound>
CN1CCC(NC(=O)c2cc(-c3c(O)cc(O)cc3Oc3ccc([N+](=O)[O-])cc3)on2)CC1

>  <target-of-assay>
A549

>  <quantity-kind>
Euclidean distance

>  <val>
3.28

$$$$
>  <compound>
Cc1cc(C)nc(NS(=O)(=O)c2ccc(N)cc2)n1 [Sulfamethazine Sodium Salt]

>  <target-of-assay>
A549

>  <quantity-kind>
Euclidean distance

>  <val>
0.792

$$$$
>  <compound>
Cc1cc(C)c2c(c1)[C@@H](N(Cc1cc(C(F)(F)F)cc(C(F)(F)F)c1)c1nnn(C)n1)CCCN2C[C@H]1CC[C@H](C(=O)O)CC1

>  <target-of-assay>
A549

>  <quantity-kind>
Euclidean distance

>  <val>
1.7

$$$$
>  <compound>
CC(C)(C)NC[C@H](O)c1ccc(O)c(CO)c1 [levalbuterol tartrate]

>  <target-of-assay>
A549

>  <quantity-kind>
Euclidean distance

>  <val>
0.326

$$$$
>  <compound>
OC(CCCN1CCCCC1)(c1ccccc1)c1ccccc1 [Diphenidol HCl]

>  <target-of-assay>
A549

>  <quantity-kind>
Euclidean distance

>  <val>
0.66

$$$$
>  <compound>
FC(F)(F)C(Cl)Br (stereo not drawn)

>  <target-of-assay>
A549

>  <quantity-kind>
Euclidean distance

>  <val>
0.628

$$$$
>  <compound>
O=C(O)C(=O)O.[NH-][C@@H]1CCCC[C@H]1[NH-].[Pt+2]

>  <target-of-assay>
A549

>  <quantity-kind>
Euclidean distance

>  <val>
3.26

$$$$
>  <compound>
CC(=O)Nc1cccc2c1c(Sc1ccc(Cl)cc1)c(C)n2CC(=O)O

>  <target-of-assay>
A549

>  <quantity-kind>
Euclidean distance

>  <val>
0.72

$$$$
>  <compound>
COc1ccc2cc(C(=O)O)ccc2c1

>  <target-of-assay>
A549

>  <quantity-kind>
Euclidean distance

>  <val>
0.63

$$$$
>  <compound>
OC(CCN1CCCCC1)(c1ccccc1)C1CCCCC1 (stereo not drawn) [Trihexyphenidyl hydrochloride]

>  <target-of-assay>
A549

>  <quantity-kind>
Euclidean distance

>  <val>
1.1

$$$$
>  <compound>
Cc1cc(C)cc(OCC2CNC(=O)O2)c1 (stereo not drawn)

>  <target-of-assay>
A549

>  <quantity-kind>
Euclidean distance

>  <val>
0.856

$$$$
>  <compound>
NCC[C@H](O)C(=O)N[C@@H]1C[C@H](N)[C@@H](O[C@H]2O[C@H](CN)[C@@H](O)[C@H](O)[C@H]2O)[C@H](O)[C@H]1O[C@H]1O[C@H](CO)[C@@H](O)[C@H](N)[C@H]1O [Amikacin hydrate]

>  <target-of-assay>
A549

>  <quantity-kind>
Euclidean distance

>  <val>
1.1

$$$$
>  <compound>
COc1cc2nccc(Oc3ccc(NC(=O)NC4CC4)c(Cl)c3)c2cc1C(N)=O [Lenvatinib (E7080)]

>  <target-of-assay>
A549

>  <quantity-kind>
Euclidean distance

>  <val>
0.779

$$$$
>  <compound>
CCOC(=O)[N-]c1c[n+](N2CCOCC2)no1

>  <target-of-assay>
A549

>  <quantity-kind>
Euclidean distance

>  <val>
1.06

$$$$
>  <compound>
COC(=O)Nc1ccc(-c2nc(N3CCOCC3)c3cnn(C4CCN(C(=O)OC)CC4)c3n2)cc1

>  <target-of-assay>
A549

>  <quantity-kind>
Euclidean distance

>  <val>
2.8

$$$$
>  <compound>
C#C[C@]1(O)CC[C@H]2[C@@H]3CCc4cc(OC5CCCC5)ccc4[C@H]3CC[C@@]21C

>  <target-of-assay>
A549

>  <quantity-kind>
Euclidean distance

>  <val>
1.26

$$$$
>  <compound>
O=C(OCCOCCO)c1ccccc1Nc1cccc(C(F)(F)F)c1 [Etofenamate]

>  <target-of-assay>
A549

>  <quantity-kind>
Euclidean distance

>  <val>
0.683

$$$$

----------
# Euclidean distance per entry
- System: HEPG2
- procedure-summary: Euclidean distance of Cell Painting phenotypic profile (signed KS, 77 features) to DMSO centroid (dimensionless distance); 5 or 10 uM (library dependent); higher = stronger phenotypic change vs DMSO (phenoactivity)
- test-conditions: 48 h
quantity-kind: Euclidean distance

>  <compound>
CCc1cc(C(N)=O)ccc1-n1nc(C(C)C)c2c(-n3cnc(-c4cnn(C)c4)c3)ccnc21

>  <val>
3.38

$$$$
>  <compound>
OC[C@@H](O)[C@@H](O[C@@H]1O[C@H](CO)[C@H](O)[C@H](O)[C@H]1O)[C@H](O)[C@@H](O)CO [Lactitol]

>  <val>
0.29

$$$$
>  <compound>
CC(C)n1c(/C=C/C(O)CC(O)CC(=O)O)c(-c2ccc(F)cc2)c2ccccc21 (stereo not drawn) [Fluvastatin Sodium]

>  <val>
1.86

$$$$

----------
- Tested on: HEPG2
- procedure-summary: Euclidean distance of Cell Painting phenotypic profile (signed KS, 77 features) to DMSO centroid (dimensionless distance); 5 or 10 uM (library dependent); higher = stronger phenotypic change vs DMSO (phenoactivity)
- test-conditions: 48 h
Where a name gives a salt, the structure may show the parent alone.
quantity-kind: Euclidean distance

>  <compound>
C=C[C@@]1(C)CC(=O)[C@]2(O)[C@@]3(C)[C@@H](O)CCC(C)(C)[C@@H]3[C@H](O)[C@H](OC(C)=O)[C@@]2(C)O1

>  <quantity-kind>
Euclidean distance

>  <val>
1.34

$$$$
>  <compound>
CCCc1nc(C)c2c(=O)nc(-c3cc(S(=O)(=O)N4CCN(CC)CC4)ccc3OCC)[nH]n12 [Vardenafil HCl Trihydrate]

>  <quantity-kind>
Euclidean distance

>  <val>
0.77

$$$$
>  <compound>
Cn1nnc2c(C(N)=O)ncn2c1=O [Temozolomide]

>  <quantity-kind>
Euclidean distance

>  <val>
1.44

$$$$
>  <compound>
CC(N/C(=N\C#N)Nc1ccncc1)C(C)(C)C (stereo not given)

>  <quantity-kind>
Euclidean distance

>  <val>
0.55

$$$$
>  <compound>
COc1ccnc(C[S+]([O-])c2nc3cc(-n4cccc4)ccc3[nH]2)c1C (stereo not given) [Ilaprazole sodium]

>  <quantity-kind>
Euclidean distance

>  <val>
0.518

$$$$
>  <compound>
COc1ccc([C@]2(C#N)CC[C@@H](C(=O)O)CC2)cc1OC1CCCC1

>  <quantity-kind>
Euclidean distance

>  <val>
1.3

$$$$
>  <compound>
CCN(CC)CCCC(C)Nc1nc(C)cc(Nc2ccc3nc(C)cc(N)c3c2)n1 (stereo not given)

>  <quantity-kind>
Euclidean distance

>  <val>
2.01

$$$$
>  <compound>
CCn1cc(C(=O)O)c(=O)c2cc(F)c(N3CCNC(C)C3)c(F)c21 (stereo not given) [Lomefloxacin HCl]

>  <quantity-kind>
Euclidean distance

>  <val>
0.796

$$$$
>  <compound>
Cc1ccc(S(=O)(=O)NC(=O)NN2CC3CCCC3C2)cc1 (stereo not given) [Gliclazide]

>  <quantity-kind>
Euclidean distance

>  <val>
1.07

$$$$
>  <compound>
CC(C)N1CCN(c2ccc(OCC3COC(Cn4cncn4)(c4ccc(Cl)cc4Cl)O3)cc2)CC1 (stereo not given)

>  <quantity-kind>
Euclidean distance

>  <val>
0.664

$$$$
>  <compound>
CCC(=O)N1CC[C@H](Nc2ncnc3c2CN(c2cnc(OC)c(C(F)(F)F)c2)CC3)C1

>  <quantity-kind>
Euclidean distance

>  <val>
0.969

$$$$
>  <compound>
CC(C)(C(=O)O)c1ccc(C(O)CCCN2CCC(C(O)(c3ccccc3)c3ccccc3)CC2)cc1 (stereo not given) [Fexofenadine HCl]

>  <quantity-kind>
Euclidean distance

>  <val>
0.305

$$$$
>  <compound>
CC(COc1ccccc1)N(CCCl)Cc1ccccc1 (stereo not given) [Phenoxybenzamine HCl]

>  <quantity-kind>
Euclidean distance

>  <val>
0.778

$$$$
>  <compound>
Cc1cc(CN2CCN(c3c(Br)cnc4nc(-c5ccc(N6CCN(C)CC6)cc5)[nH]c34)CC2)no1

>  <quantity-kind>
Euclidean distance

>  <val>
1.67

$$$$
>  <compound>
CO/N=C(\C(=O)N[C@@H]1C(=O)N2C(C(=O)O)=C(COC(N)=O)CS[C@H]12)c1ccco1 [Cefuroxime sodium]

>  <quantity-kind>
Euclidean distance

>  <val>
1.48

$$$$
